- System: HPNE
- MEASUREMENT NOTES: MTT proliferation/viability assay
- Assay type: cell-based, human
- CONDITIONS USED: Homo sapiens, pancreas
REPORTED METRIC: pIC50
As a rule, pIC50 stands for the negative log10 of the concentration, concentration in M.

The reported pIC50 of the compound Cn1cncc1CN(CCN(CC1CCCCC1)S(=O)(=O)c1ccccn1)c1ccc(C#N)cc1F [21b] was 4.87

---

- SYSTEM TESTED: hFTase (Homo sapiens, UniProt P49354+P49356)
- MEASUREMENT NOTES: In vitro hFTase inhibition: incorporation of [3H]FPP into recombinant H-Ras-CVLS
- CONDITIONS USED: in vitro; average of three independent assays (n = 3) unless stated, errors are standard deviations
REPORTED METRIC: pIC50
As a rule, pIC50 stands for the negative log10 of the concentration, concentration in M.

Examples with answers:
- COMPOUND: "Cn1cnc(S(=O)(=O)N(CCN(Cc2cncn2C)c2ccc(Br)cc2)Cc2ccccc2)c1"
  pIC50: 7.10
- COMPOUND: "Cn1cncc1CN(CCN(CC1CCCCC1)S(=O)(=O)c1ccccn1)c1ccc(C#N)cc1F [21b]"
  pIC50: 6.60
- COMPOUND: "Cn1cnc(S(=O)(=O)N(CCN(Cc2cnc[nH]2)c2ccccc2)Cc2ccccc2)c1"
  pIC50: 5.20
- COMPOUND: "Cn1cnc(S(=O)(=O)N(CCN(Cc2cnc[nH]2)c2ccc(Br)cc2)Cc2ccccc2)c1"
  pIC50: 6.14
- COMPOUND: "Cn1cncc1CN(CCN(Cc1ccccc1)S(=O)(=O)C1CC1)c1ccc(C#N)cc1"
  pIC50: 7.07
- COMPOUND: "CCCS(=O)(=O)N(CCN(Cc1cncn1C)c1ccc(C#N)cc1)Cc1ccccc1"
  pIC50: 7.32

For the next question, use this compound.
Given the compound "Cc1nn(C)c(C)c1CN(CCN(Cc1cncn1C)c1ccc(C#N)cc1)S(=O)(=O)c1cn(C)cn1" and test system hFTase (Homo sapiens, UniProt P49354+P49356), the measured pIC50 is 5.28

---

- SYSTEM TESTED: hFTase (Homo sapiens, UniProt P49354+P49356)
- MEASUREMENT NOTES: In vitro hFTase inhibition: incorporation of [3H]FPP into recombinant H-Ras-CVLS
- Format: biochemical
- CONDITIONS USED: GGTase-I IC50 / hFTase IC50
REPORTED METRIC: selectivity (ratio of GGTase-I to FTase IC50s)

- COMPOUND: "Cn1cncc1CN(CCN(Cc1ccccc1)S(=O)(=O)c1cccs1)c1ccc(C#N)cc1"
  MEASUREMENT: 200
- COMPOUND: "Cn1cnc(S(=O)(=O)N(CCN(Cc2cncn2C)c2ccc(C#N)cc2)CC(=O)NC(C)(C)C)c1"
  MEASUREMENT: 7.1
- COMPOUND: "Cn1cnc(S(=O)(=O)N(CCN(Cc2cncn2C)c2ccc(C#N)cc2)Cc2ccncc2)c1"
  MEASUREMENT: ">139"

The reported selectivity (ratio of GGTase-I to FTase IC50s) of the compound "Cn1cncc1CN(CCN(Cc1ccccc1)S(=O)(=O)C1CC1)c1ccc(C#N)cc1" was 65

The reported selectivity (ratio of GGTase-I to FTase IC50s) of the compound Cn1cncc1CN(CCN(CC1CCCCC1)S(=O)(=O)c1ccccn1)c1ccc(C#N)cc1 [21a] was 1.5

The reported selectivity (ratio of GGTase-I to FTase IC50s) of the compound "Cc1nn(C)c(C)c1CN(CCN(Cc1cncn1C)c1ccc(C#N)cc1)S(=O)(=O)c1cn(C)cn1" was >1.9

The reported selectivity (ratio of GGTase-I to FTase IC50s) of the compound "CCCS(=O)(=O)N(CCN(Cc1cncn1C)c1ccc(C#N)cc1)Cc1ccccc1" was 85

The reported selectivity (ratio of GGTase-I to FTase IC50s) of the compound "Cn1cnc(S(=O)(=O)N(CCN(Cc2cncn2C)c2ccc(C(=O)OC(C)(C)C)cc2)Cc2ccccc2)c1" was 0.9

The reported selectivity (ratio of GGTase-I to FTase IC50s) of the compound "Cn1cnc(S(=O)(=O)N(CCN(Cc2cncn2C)c2ccc(C#N)cc2)CC2CCN(C(=O)OC(C)(C)C)CC2)c1" was >2.7

The reported selectivity (ratio of GGTase-I to FTase IC50s) of the compound "C=C(Br)CN(CCN(Cc1cncn1C)c1ccc(C#N)cc1)S(=O)(=O)c1cn(C)cn1" was 31

---

- SYSTEM TESTED: hFTase (Homo sapiens, UniProt P49354+P49356)
- MEASUREMENT NOTES: In vitro hFTase inhibition: incorporation of [3H]FPP into recombinant H-Ras-CVLS
- Assay type: biochemical
- CONDITIONS USED: GGTase-I IC50 / hFTase IC50
REPORTED METRIC: selectivity (ratio of GGTase-I to FTase IC50s)
Give a plain numeric answer without units written out.

Examples with answers:
- COMPOUND: "Cn1cnc(S(=O)(=O)N(CCCN(Cc2cncn2C)c2ccc(C#N)cc2)Cc2ccccc2)c1 [20a]"
  MEASUREMENT: 11
- COMPOUND: "Cn1cncc1CN(CCN(CC1CCCCC1)S(=O)(=O)c1ccccn1)c1ccc(C#N)cc1F [21b]"
  MEASUREMENT: 2.1
- COMPOUND: "Cn1cnc(S(=O)(=O)N(CCN(Cc2cncn2C)c2ccc(C#N)cc2)Cc2ccc(C#N)cc2)c1"
  MEASUREMENT: 18

For the next question, use this compound.
The reported selectivity (ratio of GGTase-I to FTase IC50s) of the compound "Cn1cnc(S(=O)(=O)N(CCN(Cc2cncn2C)c2ccc(C(=O)O)cc2)Cc2ccccc2)c1" was 48

---

- SYSTEM TESTED: hFTase (Homo sapiens, UniProt P49354+P49356)
- MEASUREMENT NOTES: In vitro hFTase inhibition: incorporation of [3H]FPP into recombinant H-Ras-CVLS
- Type: biochemical
- CONDITIONS USED: GGTase-I IC50 / hFTase IC50
REPORTED METRIC: selectivity (ratio of GGTase-I to FTase IC50s)
Give a plain numeric answer without units written out.

- MOLECULE: "Cn1cnc(S(=O)(=O)N(CCN(Cc2cncn2C)c2ccc(C#N)c(F)c2)CC2CCN(c3ncccn3)CC2)c1 [19e]"
  MEASUREMENT: 41

For the next question, use this molecule.
The reported selectivity (ratio of GGTase-I to FTase IC50s) of the molecule Cc1cccc(CN(CCN(Cc2cncn2C)c2ccc(C#N)cc2)S(=O)(=O)c2cn(C)cn2)c1 [1ap] was 12

---

- SYSTEM TESTED: hFTase (Homo sapiens, UniProt P49354+P49356)
- MEASUREMENT NOTES: In vitro hFTase inhibition: incorporation of [3H]FPP into recombinant H-Ras-CVLS
- Format: biochemical
- CONDITIONS USED: GGTase-I IC50 / hFTase IC50
Readings of selectivity (ratio of GGTase-I to FTase IC50s) for the listed compounds
Give a plain numeric answer without units written out.

- SMILES RECORD: "Cn1cnc(S(=O)(=O)N(CCN(Cc2cncn2C)c2ccc(C#N)cc2)Cc2ccc(-n3cccc3)cc2)c1"
  SYSTEM TESTED: "hFTase (Homo sapiens, UniProt P49354+P49356)"
  MEASUREMENT: 15

For the next question, use this compound.
The reported selectivity (ratio of GGTase-I to FTase IC50s) of the compound "Cn1cnc(S(=O)(=O)N(CCN(Cc2cncn2C)c2ccc(C#N)cc2)Cc2ccsc2)c1" was 14

---

- Test system: HPDE-C7
- MEASUREMENT NOTES: MTT proliferation/viability assay
- Assay type: cell-based, human
- CONDITIONS USED: Homo sapiens, HPDE-C7, pancreas
REPORTED METRIC: IC50 (µM)
Respond with the bare value in µM.

The reported IC50 of the molecule Cn1cncc1CN(CCN(CC1CCCCC1)S(=O)(=O)c1ccccn1)c1ccc(C#N)cc1F [21b] was 7.5

---

- Tested on: Capan-2
- MEASUREMENT NOTES: MTT proliferation/viability assay
- Format: cell-based, human
- CONDITIONS USED: Capan-2, pancreas
pIC50: −log10 of the molar value.
REPORTED METRIC: pIC50

The reported pIC50 of the compound "CSCC[C@H](NC(=O)c1ccc(CNCc2cnc[nH]2)cc1-c1ccccc1C)C(=O)O" was < 4.00

---

- System: MCF-7
- MEASUREMENT NOTES: MTT proliferation/viability assay
- Type: cell-based, human
- CONDITIONS USED: Homo sapiens, MCF7, MCF-7, breast
REPORTED METRIC: IC50 (µM)
Respond with the bare value in µM.

The reported IC50 of the compound Cn1cncc1CN(CCN(CC1CCCCC1)S(=O)(=O)c1ccccn1)c1ccc(C#N)cc1F [21b] was 4.42
